assay: yeast display, Sf9 membrane polyspecificity reagent, FACS + sequencing; frameworks hold sequencing errors
assay readout: polyreactivity (PSR sort gate)

sequence_input=QVQLVESGGGLVQAGGSLRLICAASGIIYYYYAMGWYRQAPGKERELVAAINFSVGGTYYADSVKGSFTNSRDNAKNSVYLQMNSQKPEDTAVYYCAKDIVIPATYVEYDYWGQGTQVTVSS readout_value="low polyreactivity"
sequence_input=QDQLVESGGGLDQAGGSLRLSCAASGFTFYNYAMGWYRQAPGKERELVAAISWNGGSTYYADSVKGRFTISRDNAKNTVYLQMNSLKPEDTAVYYCNADISQRTRGYYYVWWSRMDYWGQGTQVTVSS readout_value="low polyreactivity"
sequence_input=QVQLVESGGGLVQAGGSLRLSCAASGIIFDYYDMGWYRQAPGKERELVAAISDDGGSTYYADSVKGRFTISRDNAKNTVYLQMNSLKPEDTAVYYCAADSYYAYPYGYGYWGQGTQVTVSS readout_value="high polyreactivity"
sequence_input=QVQLVESGVGLVQAGGSLRLSCAASGRTFFGYAMGWYRQAPGKEREFVASISKRGGRTYYADSVKGRFTISRDNAKNSVYLQMNSLKPEDTAVYYCNAYESYPDPLTMEYWGQGTQVTVSS readout_value="high polyreactivity"
sequence_input=QVQLVESGGGLVQAGGSLRLSCAASGTFYKYAMGWYRQAPGKERELVAAISWRGGRTYADSVKGRFKISRDNAKNTVYLQMNSLKPEDTAVYYCNKRFYPEHYYWGQGTQVTVSS readout_value="high polyreactivity"
sequence_input=QVQLVESGGGLVQAGGSLRLSCAASGFIFRTNAMGWYRQAPGKERELVAAITSSGGTTFYADSVKGRFTISRDNAKNTVYLQMNSLKPEDTAVYYCAAAYKHRTRSWTYGYWGQGTQVTVSS readout_value="high polyreactivity"
sequence_input=QVQLVESGGGLVQAGGSLRLSCAASGITFSSYTMGGYRQAPGKERELVARINSGGTTNYADSVKGRFTISRDNAKNTVYLQMNSLKPEDTAVFYCAAEWVSWRWAHKFDYWGQGTQVTVSS readout_value="high polyreactivity"
sequence_input=QVQLVESVGGLVQAGGSLRLSCAASGSTIDGYAMGWYRQAPGKEREFVAAISFSSASTYYADSVKGRFTISRDNAKNTVYLQMNSLKPEDTAVYYCNADFFDSGGSIEYDSWGQGTQVTVSS readout_value="low polyreactivity"
sequence_input=QVQLVESGGALDQAGGRLPLSSAASGSIFRINAMRLYRQAPGKVRELVAAISWSGGSTYYADSVKGRFTISRDNAKNTVYLQMNSLKQEDTAVYYCADVVSKSSFDYWVQGTQVTVSS readout_value="low polyreactivity"
sequence_input=QVQLVESGGGLVQAGGSLRLSCAASGSIFNYYGMGWYRQAPGKERELVAAISYSGGSTYYADSVKGRFTISRDNAKNTVYLQMNSLKPEDTAVYYCAKRYYPVIRYHSTYDSWGQGTQVTVSS readout_value="low polyreactivity"
sequence_input=QVQLVESGGGLVQAGGSLRLSCAASGSILNAYAMGWYRQAPGKERELVAAITGSDGSTYYADSVKGRFTISRDNAKNTVYLQMNSLKPEDTAVYYCNADYSQPVYWWLDDYWGHGTQVTVSS readout_value="low polyreactivity"

The measurements presented in this section are drawn from the nanobody polyreactivity screen of Harvey et al. (2022).
